Data origin: patent US10351575B2

molecular target: UniProtKB Q13554; assay: KinaseProfiler off-target kinase profiling; assay type: biochemical; conditions: 10 μM, ATP near Km
Sequence (Q13554 whole entry): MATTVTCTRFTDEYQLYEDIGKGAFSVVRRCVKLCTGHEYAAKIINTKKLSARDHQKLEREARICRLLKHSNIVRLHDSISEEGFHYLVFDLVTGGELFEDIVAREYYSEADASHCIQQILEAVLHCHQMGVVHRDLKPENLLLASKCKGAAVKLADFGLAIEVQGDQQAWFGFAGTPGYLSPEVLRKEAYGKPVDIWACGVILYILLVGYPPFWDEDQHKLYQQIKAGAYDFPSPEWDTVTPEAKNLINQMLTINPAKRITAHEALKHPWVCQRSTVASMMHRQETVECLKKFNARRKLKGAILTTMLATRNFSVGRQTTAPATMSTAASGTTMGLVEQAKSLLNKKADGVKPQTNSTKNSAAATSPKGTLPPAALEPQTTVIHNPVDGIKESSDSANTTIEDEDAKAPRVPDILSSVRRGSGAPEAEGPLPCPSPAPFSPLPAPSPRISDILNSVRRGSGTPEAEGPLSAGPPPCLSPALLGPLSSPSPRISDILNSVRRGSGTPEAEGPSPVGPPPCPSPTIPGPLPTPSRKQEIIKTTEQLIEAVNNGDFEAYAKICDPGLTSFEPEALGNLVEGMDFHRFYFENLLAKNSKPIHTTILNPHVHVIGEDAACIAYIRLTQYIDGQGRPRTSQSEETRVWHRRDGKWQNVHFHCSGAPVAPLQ
Endpoint: Avg. POC (POC)

Documented Avg. POC of Cc1c(-c2ccc(=O)n(C)c2)nn(-c2ccccc2)c1NC(=O)NC1CN(CC(F)(F)F)Cc2ccccc21 (stereo not shown) : 107

Documented Avg. POC of Cc1c(-c2cnn(C)c2)nn(-c2ccccc2)c1NC(=O)NC1CCOc2cc(F)ccc21 (stereo not shown) : 106

Documented Avg. POC of Cc1c(-c2cnn(C)c2)nn(-c2ccccc2)c1NC(=O)N[C@H]1CCCc2ccccc21 : 106.5

Documented Avg. POC of COCc1ccc2c(c1)C(NC(=O)Nc1c(C)c(-c3cnn(C)c3)nn1-c1ccccc1)COC2 (stereo not shown) : 102.5

====

biological target: PRKG1beta (Homo sapiens (Human), UniProt Q13976); experiment: KinaseProfiler off-target kinase profiling; assay type: biochemical; settings: 10 μM, ATP near Km
Sequence (Q13976 other isoform, or with tags, fused parts or gaps): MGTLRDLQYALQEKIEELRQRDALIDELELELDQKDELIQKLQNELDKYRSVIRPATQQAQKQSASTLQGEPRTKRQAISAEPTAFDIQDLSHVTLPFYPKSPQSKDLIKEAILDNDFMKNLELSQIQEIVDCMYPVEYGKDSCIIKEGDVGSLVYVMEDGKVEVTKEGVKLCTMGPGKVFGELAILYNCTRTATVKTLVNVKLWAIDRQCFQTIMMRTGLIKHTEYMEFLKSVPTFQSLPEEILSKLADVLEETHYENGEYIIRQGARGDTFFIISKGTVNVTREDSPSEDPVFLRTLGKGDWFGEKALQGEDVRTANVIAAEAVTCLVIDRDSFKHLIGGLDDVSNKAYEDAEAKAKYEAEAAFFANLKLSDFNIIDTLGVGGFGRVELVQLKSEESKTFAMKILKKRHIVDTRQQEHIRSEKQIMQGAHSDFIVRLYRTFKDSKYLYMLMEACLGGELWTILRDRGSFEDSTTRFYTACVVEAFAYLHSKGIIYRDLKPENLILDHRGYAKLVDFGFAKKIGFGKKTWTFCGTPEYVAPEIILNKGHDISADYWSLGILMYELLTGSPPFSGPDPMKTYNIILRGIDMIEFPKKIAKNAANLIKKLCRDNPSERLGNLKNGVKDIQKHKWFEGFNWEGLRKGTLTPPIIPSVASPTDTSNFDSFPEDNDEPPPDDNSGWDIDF
Endpoint: Avg. POC (POC)

Documented Avg. POC of Cc1c(-c2cnn(C)c2)nn(-c2ccccc2)c1NC(=O)N[C@H]1CCCc2ccccc21 [Example 2] : 122

Documented Avg. POC of Cc1c(-c2ccc(=O)n(C)c2)nn(-c2ccccc2)c1NC(=O)NC1CN(CC(F)(F)F)Cc2ccccc21 (stereo not shown) [Example 26] : 111.5

Documented Avg. POC of COCc1ccc2c(c1)C(NC(=O)Nc1c(C)c(-c3cnn(C)c3)nn1-c1ccccc1)COC2 (stereo not shown) [Example 32] : 80.5

Documented Avg. POC of Cc1c(-c2cnn(C)c2)nn(-c2ccccc2)c1NC(=O)NC1CCOc2cc(F)ccc21 (stereo not shown) [Example 12] : 95.5

====

biological target: IRAK4 (Homo sapiens (Human), UniProt Q9NWZ3); experiment: KinaseProfiler off-target kinase profiling; type: biochemical; conditions: 10 μM, ATP near Km
Sequence (Q9NWZ3 whole entry): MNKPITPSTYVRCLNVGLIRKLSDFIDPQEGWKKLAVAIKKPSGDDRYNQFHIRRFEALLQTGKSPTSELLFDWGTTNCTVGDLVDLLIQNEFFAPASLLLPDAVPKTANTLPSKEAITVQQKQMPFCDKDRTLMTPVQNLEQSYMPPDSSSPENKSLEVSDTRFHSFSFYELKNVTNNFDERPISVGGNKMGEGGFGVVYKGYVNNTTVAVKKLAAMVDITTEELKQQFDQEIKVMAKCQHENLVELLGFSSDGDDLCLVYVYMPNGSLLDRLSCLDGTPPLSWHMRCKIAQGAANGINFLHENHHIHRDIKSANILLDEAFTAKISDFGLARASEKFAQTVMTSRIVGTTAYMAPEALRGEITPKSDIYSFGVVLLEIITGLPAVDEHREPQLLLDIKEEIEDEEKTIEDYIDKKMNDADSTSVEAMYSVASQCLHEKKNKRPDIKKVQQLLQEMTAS
Endpoint: Avg. POC (POC)

Documented Avg. POC of Cc1c(-c2cnn(C)c2)nn(-c2ccccc2)c1NC(=O)NC1CCOc2cc(F)ccc21 (stereo not shown) [Example 12] : 95.5

Documented Avg. POC of Cc1c(-c2cnn(C)c2)nn(-c2ccccc2)c1NC(=O)N[C@H]1CCCc2ccccc21 [Example 2] : 125.5

Documented Avg. POC of Cc1c(-c2ccc(=O)n(C)c2)nn(-c2ccccc2)c1NC(=O)NC1CN(CC(F)(F)F)Cc2ccccc21 (stereo not shown) [Example 26] : 102

Documented Avg. POC of COCc1ccc2c(c1)C(NC(=O)Nc1c(C)c(-c3cnn(C)c3)nn1-c1ccccc1)COC2 (stereo not shown) [Example 32] : 99

====

target: MKK7beta (Homo sapiens (Human), UniProt O14733); test: KinaseProfiler off-target kinase profiling; format: biochemical; conditions: 10 μM, ATP near Km
Sequence (O14733 whole entry, change not shown): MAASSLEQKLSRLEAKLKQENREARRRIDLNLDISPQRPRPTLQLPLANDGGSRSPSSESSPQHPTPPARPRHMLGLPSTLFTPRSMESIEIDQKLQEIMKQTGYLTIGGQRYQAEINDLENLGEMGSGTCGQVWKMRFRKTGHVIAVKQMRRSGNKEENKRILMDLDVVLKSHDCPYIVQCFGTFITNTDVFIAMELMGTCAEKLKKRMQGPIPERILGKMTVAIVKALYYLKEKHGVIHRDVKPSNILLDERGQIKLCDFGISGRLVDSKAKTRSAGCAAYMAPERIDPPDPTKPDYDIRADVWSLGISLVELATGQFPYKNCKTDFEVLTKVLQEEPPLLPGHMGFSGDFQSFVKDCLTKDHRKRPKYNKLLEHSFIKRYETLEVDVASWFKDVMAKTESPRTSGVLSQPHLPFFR
Endpoint: Avg. POC (POC)

Documented Avg. POC of Cc1c(-c2cnn(C)c2)nn(-c2ccccc2)c1NC(=O)NC1CCOc2cc(F)ccc21 (stereo not shown) [Example 12] : 122.5

Documented Avg. POC of Cc1c(-c2cnn(C)c2)nn(-c2ccccc2)c1NC(=O)N[C@H]1CCCc2ccccc21 [Example 2] : 129.5

Documented Avg. POC of COCc1ccc2c(c1)C(NC(=O)Nc1c(C)c(-c3cnn(C)c3)nn1-c1ccccc1)COC2 (stereo not shown) [Example 32] : 138.5

Documented Avg. POC of Cc1c(-c2ccc(=O)n(C)c2)nn(-c2ccccc2)c1NC(=O)NC1CN(CC(F)(F)F)Cc2ccccc21 (stereo not shown) [Example 26] : 144.5
